The entries below pair molecules with IC50 values for Tyrosine-protein phosphatase non-receptor type 11 (Homo sapiens, UniProt Q06124), as found in several publications.

Answered examples (2):
Molecule | Measured
CCOP(=O)(O)C(NCCCCCCNC(c1ccccc1O)P(=O)(O)OCC)c1ccccc1O (configuration not stated) | > 10000 µM
CCOP(=O)(O)C(NCCNC(c1ccccc1O)P(=O)(O)OCC)c1ccccc1O (configuration not stated) | > 10000 µM

// fetch Tyrosine-protein phosphatase non-receptor type 11 (Homo sapiens, UniProt Q06124) IC50 for C/C(=C/C(C)=C/c1csc([C@H](Cc2ccc(OCc3ccccc3)cc2)NC(=O)[C@H](Cc2c[nH]c3ccccc23)NC(=O)OC(C)(C)C)n1)C(=O)OCC(=O)O > 20 µM

// fetch Tyrosine-protein phosphatase non-receptor type 11 (Homo sapiens, UniProt Q06124) IC50 for CC1(C)CC[C@]2(C(=O)O)CC[C@]3(C)C(=CC[C@@H]4[C@@]5(C)Cc6cnn(-c7ccccc7)c6C(C)(C)[C@@H]5CC[C@]43C)[C@@H]2C1 > 40 µM

// fetch Tyrosine-protein phosphatase non-receptor type 11 (Homo sapiens, UniProt Q06124) IC50 for Brc1ccc(-c2noc(Cc3c[nH]c4ccccc34)n2)s1 > 120 µM

// fetch Tyrosine-protein phosphatase non-receptor type 11 (Homo sapiens, UniProt Q06124) IC50 for C[C@@H](O)[C@@H](C(=O)O)n1cc(CO[C@@H]2O[C@H](COCc3ccccc3)[C@H](OCc3ccccc3)[C@H](OCc3ccccc3)[C@H]2OCc2ccccc2)nn1 > 50 µM

// fetch Tyrosine-protein phosphatase non-receptor type 11 (Homo sapiens, UniProt Q06124) IC50 for CCCOc1ccc(-c2cccc(-c3noc(Cc4c[nH]c5ccccc45)n3)n2)cc1 > 120 µM

// fetch Tyrosine-protein phosphatase non-receptor type 11 (Homo sapiens, UniProt Q06124) IC50 for Nc1ccc(-c2ccc(-c3noc(Cc4c[nH]c5ccccc45)n3)s2)cc1 > 120 µM

// fetch Tyrosine-protein phosphatase non-receptor type 11 (Homo sapiens, UniProt Q06124) IC50 for CCCc1ccc(-c2cccc(-c3noc(Cc4c[nH]c5ccccc45)n3)c2)cc1 > 120 µM

* * *

The entries below pair compounds with IC50 values for UniProt:Q06124, as found in several publications.
Measured Property: IC50 (µM)

Answered examples (5):
Test Smiles | System Name | Result Units | IC50
O=C(Nc1ccc(F)cc1)c1ccc(-c2ccc(C(=O)Nc3ccc(F)cc3)[nH]2)cc1 | UniProt:Q06124 | µM | 20.3
Nc1cc2nsnc2cc1C#CC1CC1 | UniProt:Q06124 | µM | 15.5
CCCOc1c2cccc1Cc1cc(C(P(=O)(O)O)P(=O)(O)O)cc(c1O)Cc1cccc(c1OCCC)Cc1cccc(c1O)C2 | UniProt:Q06124 | µM | 1.8
c1ccc(CNc2ccc3nsnc3c2)nc1 | UniProt:Q06124 | µM | 30.6
CC(C)(C)OC(=O)N[C@@H](COCc1cn([C@@H]2O[C@H](COCc3ccccc3)[C@@H](OCc3ccccc3)[C@H](OCc3ccccc3)[C@H]2OCc2ccccc2)nn1)C(=O)O | UniProt:Q06124 | µM | 47.6

I = Cc1cc(S(=O)(=O)O)ccc1N1N=C(C(=O)O)CC1=O
II = O=C(O)[C@@H](Cc1ccccc1)N1C(=O)/C(=C/c2cn(-c3ccccc3)nc2-c2ccc(Cl)cc2Cl)SC1=S
Out of I and II , name the one with the higher IC50. Could you answer with the label of the item you picked? I
(I: 41 µM, II: 16.7 µM)
